measured.on: Protein Mdm4 (Homo sapiens) + E3 ubiquitin-protein ligase Mdm2 (Homo sapiens) (UniProt O15151+Q00987)
Sequence (O15151 whole entry, looked up): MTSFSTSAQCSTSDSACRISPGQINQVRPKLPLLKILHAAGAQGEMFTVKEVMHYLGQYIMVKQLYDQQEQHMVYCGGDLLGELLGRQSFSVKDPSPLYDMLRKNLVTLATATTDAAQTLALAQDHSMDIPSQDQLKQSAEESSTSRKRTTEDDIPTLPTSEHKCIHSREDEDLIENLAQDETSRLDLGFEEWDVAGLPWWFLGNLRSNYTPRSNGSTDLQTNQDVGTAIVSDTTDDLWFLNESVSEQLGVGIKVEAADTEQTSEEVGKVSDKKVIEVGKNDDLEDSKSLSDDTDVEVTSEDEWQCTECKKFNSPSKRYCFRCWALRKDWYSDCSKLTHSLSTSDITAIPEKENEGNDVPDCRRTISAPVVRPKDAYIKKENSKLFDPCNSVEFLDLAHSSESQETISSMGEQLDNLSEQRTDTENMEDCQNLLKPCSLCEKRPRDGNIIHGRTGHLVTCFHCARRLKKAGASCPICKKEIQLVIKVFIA
Sequence (Q00987 whole entry, looked up): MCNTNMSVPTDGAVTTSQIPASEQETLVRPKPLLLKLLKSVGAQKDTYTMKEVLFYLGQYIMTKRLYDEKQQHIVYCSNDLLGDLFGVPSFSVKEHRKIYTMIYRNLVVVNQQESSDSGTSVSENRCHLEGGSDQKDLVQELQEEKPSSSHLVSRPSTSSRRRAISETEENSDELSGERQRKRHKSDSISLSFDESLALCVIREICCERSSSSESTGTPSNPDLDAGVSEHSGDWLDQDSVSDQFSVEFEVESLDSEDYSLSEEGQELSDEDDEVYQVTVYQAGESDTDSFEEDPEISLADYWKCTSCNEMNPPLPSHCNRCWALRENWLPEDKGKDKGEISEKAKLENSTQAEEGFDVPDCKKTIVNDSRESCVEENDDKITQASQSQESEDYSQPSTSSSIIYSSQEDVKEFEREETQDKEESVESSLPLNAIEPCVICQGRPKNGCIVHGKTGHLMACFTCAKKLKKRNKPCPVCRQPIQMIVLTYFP
procedure.details: inhibitors of human Mdm2-MdmX association, primary screen, cell-based, luminescence, split luciferase, SaOS-2, uHTS (AID 485346)
run.parameters: SaOS-2 split-luciferase Mdm2/MdmX complementation, at 8 µM, active compounds read high
Out of some 330,000 compounds screened, about 10,000 (3%) were called active. The full list was thinned out, with actives kept by preference.
Tick rule met if inhibition is 10% or greater. Tick rule not met if inhibition is less than 10%.

Decide: is the reported value of inhibition for O=C(NCC#CCSc1nnc(-c2cccc3ccccc23)o1)c1cccs1 equal to or greater than 10%?
rule met

Decide: is the reported value of inhibition for COc1ccc(-c2nnc(SCC(=O)c3ccc4c(c3)OCCO4)o2)cc1 equal to or greater than 10%?
rule met

Decide: is the reported value of inhibition for CCN([C@H](CO)C(C)C)S(=O)(=O)c1ccccc1Br equal to or greater than 10%?
rule met

Decide: is the reported value of inhibition for COC(=O)c1ccc(C2C3=C(Nc4nnnn42)c2ccccc2OC3)cc1 (stereo not drawn) equal to or greater than 10%?
rule met

Decide: is the reported value of inhibition for COc1ccc(-c2nnc(SC(C)C(=O)NC3CC3)o2)cc1 (stereo not drawn) equal to or greater than 10%?
rule met

Decide: is the reported value of inhibition for CCC(C)(C(=O)Nc1ccccc1C)N(C(=O)CNC(C)=O)c1ccc(C)cc1 (stereo not drawn) equal to or greater than 10%?
rule not met

Decide: is the reported value of inhibition for O=[N+]([O-])c1ccccc1S(=O)(=O)Nc1cccc2cccnc12 equal to or greater than 10%?
rule met

Decide: is the reported value of inhibition for O=C(CCNS(=O)(=O)c1ccc(Br)cc1)NCC1CCCO1 (stereo not drawn) equal to or greater than 10%?
rule not met

Decide: is the reported value of inhibition for C=CCN(CC=C)S(=O)(=O)c1ccc(C(=O)Nc2sc3c(c2C(N)=O)CCCCC3)cc1 equal to or greater than 10%?
rule met

Decide: is the reported value of inhibition for Cn1c2c(c(=O)n(C)c1=O)C(c1cccc(F)c1)C(C#N)=C(N)O2 (stereo not drawn) equal to or greater than 10%?
rule not met

Decide: is the reported value of inhibition for OCC1(Cc2ccccc2C(F)(F)F)CCN(Cc2cccc3cnccc23)CC1 equal to or greater than 10%?
rule not met

Decide: is the reported value of inhibition for O=C(CSc1ccc(-c2ccc(Br)cc2)nn1)NCC1CCCO1 (stereo not drawn) equal to or greater than 10%?
rule not met

Decide: is the reported value of inhibition for Cc1ccc(-c2nc(C)sc2CC(=O)OCC(=O)Nc2c(F)cccc2F)cc1 equal to or greater than 10%?
rule not met

Decide: is the reported value of inhibition for Cc1ccc(S(=O)(=O)N(Cc2ccccc2)c2ccccn2)cc1[N+](=O)[O-] equal to or greater than 10%?
rule met

Decide: is the reported value of inhibition for O=C(NNC(=O)c1cc(-c2ccccc2Cl)nc2ccccc12)c1csc(N2CCOCC2)n1 equal to or greater than 10%?
rule not met

Decide: is the reported value of inhibition for COc1ccc(N2CCN(C(CNS(=O)(=O)c3ccc(C)cc3)c3ccccc3)CC2)cc1 (stereo not drawn) equal to or greater than 10%?
rule met

Decide: is the reported value of inhibition for OC(CNCC1CCCO1)Cn1c2ccc(Br)cc2c2cc(Br)ccc21 (stereo not drawn) equal to or greater than 10%?
rule met

Decide: is the reported value of inhibition for Cc1ccccc1NC(=O)c1ccccc1NS(=O)(=O)c1cccc2cccnc12 equal to or greater than 10%?
rule met
